FYI, the data here is from patent US9981960B2.

# TARGET: Human MC1R (Homo sapiens, UniProt Q01726)
# Construct: endogenous in cells; host or cells: human melanoma cell line HBL
# Sequence (Q01726 whole entry): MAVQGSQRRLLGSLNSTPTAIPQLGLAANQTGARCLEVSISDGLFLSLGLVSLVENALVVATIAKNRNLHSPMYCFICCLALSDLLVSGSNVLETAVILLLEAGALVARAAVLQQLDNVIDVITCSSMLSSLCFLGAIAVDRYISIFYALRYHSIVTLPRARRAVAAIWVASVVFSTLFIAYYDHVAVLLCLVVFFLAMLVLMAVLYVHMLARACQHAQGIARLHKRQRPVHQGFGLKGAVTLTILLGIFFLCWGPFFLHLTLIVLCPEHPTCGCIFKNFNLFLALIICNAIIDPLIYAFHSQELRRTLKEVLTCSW
# TEST_DETAILS: MCR agonist measurement (cAMP measurement), human MC1R agonist activity in human melanoma cell line HBL
# Assay type: cell-based
# TEST_CONTEXT: HBL cells, 37° C. for 30 minutes, intracellular cAMP by fluorescence method
pEC50: −log10 of the molar value.
Documented pEC50 across a set of molecules
READOUT_TYPE: pEC50

MOLECULE	TARGET	VALUE_MEASURED
COc1ccc([C@@H]2CN([C@H]3CC[C@H](OC)CC3)C[C@@]2(F)C(=O)N2CCC(c3ccc(C(F)(F)F)cc3N3CCC(C(=O)O)CC3)CC2)cc1 [Example 98]	Human MC1R (Homo sapiens, UniProt Q01726)	7.82
COc1ccc([C@@H]2CN(C(C)(C)C)C[C@@]2(F)C(=O)N2CC[C@H](c3ccc(C(F)(F)F)cc3N3CCC(C(=O)O)CC3)C2)cc1.Cl.Cl [Example 286b, dihydrochloride]	Human MC1R (Homo sapiens, UniProt Q01726)	6.72
COC[C@H]1CN(C(=O)[C@]2(F)CN(c3ccnc(OC)c3)C[C@H]2c2ccc(OC)cc2)C[C@@H]1c1ccc(C(F)(F)F)cc1N1CCC(C(=O)O)CC1 [Example 61]	Human MC1R (Homo sapiens, UniProt Q01726)	7.52

###

# TARGET: Human MC1R (Homo sapiens, UniProt Q01726)
# Construct: endogenous in cells
# TEST_DETAILS: MCR agonist measurement (cAMP measurement), human MC1R agonist activity in human melanoma cell line HBL
# TEST_CONTEXT: HBL cells, 37° C. for 30 minutes, intracellular cAMP by fluorescence method
pEC50: −log10 of the molar value.
Threshold check on pEC50: at or above 8 gives yes, strictly below gives no.

COMPOUND	DISCRETE_LABEL
COC[C@@H]1C[C@@H](c2ccc(C(F)(F)F)cc2N2CCC(C(=O)O)CC2)CN1C(=O)[C@]1(OC)CN(C2CCCCCC2)C[C@H]1c1ccc(OC)cc1 [Example 154]	yes
COc1ccc([C@@H]2CN(C(C)(C)C)C[C@@]2(F)C(=O)N2CCC(c3ccc(C(F)(F)F)cc3N3CCC(C(=O)N4CCCC4)CC3)CC2)cc1 [Example 235]	no
COc1ccc([C@@H]2CN([C@H]3CC[C@H](OC)CC3)C[C@@]2(F)C(=O)N2C[C@H](c3ccc(C(F)(F)F)cc3N3CCC(C(=O)O)CC3)[C@@H](F)C2)cc1 [Example 148]	yes

###

# TARGET: Human MC1R (Homo sapiens)
# Construct: endogenous in cells; host or cells: human melanoma cell line HBL
# TEST_DETAILS: MCR agonist measurement (cAMP measurement), human MC1R agonist activity in human melanoma cell line HBL
# Format: cell-based
# TEST_CONTEXT: Intrinsic Activity; vehicle cAMP = 0%, αMSH at 10^-6 M = 100%; HBL cells
READOUT_TYPE: Human MC1R IA % (%)

>>> df
                                item_smiles     readout_type  unit_abbreviation  value_measured
0  COC[C@@]1(OC)CN(C(=O)[C@]2(F)CN([C@H]3CC[C@H](OC)CC3)C[C@H]2c2ccc(OC)cc2)C[C@@H]1c1ccc(C(F)(F)F)cc1N1CCC(C(=O)O)CC1  Human MC1R IA %                  %              83
1  COC[C@@H]1C[C@@H](c2ccc(C(F)(F)F)cc2N2CCC(C(=O)O)CC2)CN1C(=O)[C@]1(F)CN(C2CCC2)C[C@H]1c1ccc(OC)cc1  Human MC1R IA %                  %              80
2  COc1ccc([C@@H]2CN(C3CCN(C(CF)CF)CC3)C[C@@]2(F)C(=O)N2CCC(c3ccc(C(F)(F)F)cc3N3CCC(C(=O)O)CC3)CC2)cc1  Human MC1R IA %                  %             103
3  COc1ccc([C@@H]2CN(C(C)(C)C)C[C@@]2(F)C(=O)N2CCC(c3ccc(C(F)(F)F)cc3N3C[C@@H]4[C@H](C3)[C@H]4C(=O)O)CC2)cc1  Human MC1R IA %                  %              83
4  COC[C@H]1CN(C(=O)[C@]2(F)CN([C@H]3CC[C@H](OC)CC3)C[C@H]2c2ccc(OC)cc2)C[C@@H]1c1ccc(C(F)(F)F)cc1N1CCC(C(=O)N(C)C)CC1  Human MC1R IA %                  %             115

###

# TARGET: Human MC1R (Homo sapiens, UniProt Q01726)
# Construct: endogenous in cells; host or cells: human melanoma cell line HBL
# TEST_DETAILS: MCR agonist measurement (cAMP measurement), human MC1R agonist activity in human melanoma cell line HBL
# Type: cell-based
# TEST_CONTEXT: Intrinsic Activity; vehicle cAMP = 0%, αMSH at 10^-6 M = 100%; HBL cells
# Procedure: (1) Method for Culturing Cells Human MC1R agonist activity measurement was carried out by using human melanoma cell line HBL. Culture of HBL: F-10 Nutrient Mixture containing 10% FCS and Penicillin-streptomycin was used in the culture. (2) cAMP Assay and Data Calculation Each compound solution having each concentration was mixed with cAMP assay buffer (HBSS (Hank's Balanced Salt Solution) containing 10 mM HEPES and 0.1% BSA), and dispensed into 96 well plate. […]
Entries and their measured Human MC1R IA % follow.
READOUT_TYPE: Human MC1R IA % (%)

MOLECULE	TARGET	READOUT_TYPE	UNIT_ABBREVIATION	VALUE_MEASURED
COc1ccc([C@@H]2CN(C3CCCC3)C[C@@]2(F)C(=O)N2CCCC(c3ccc(C(F)(F)F)cc3N3CCC(C(=O)O)CC3)C2)cc1 (single isomer, unassigned) [Example 291]	Human MC1R (Homo sapiens, UniProt Q01726)	Human MC1R IA %	%	67
CCO[C@H]1CC[C@H](N2C[C@@H](c3ccc(OC)cc3)[C@](OC)(C(=O)N3C[C@H](c4ccc(C(F)(F)F)cc4N4CCC(C(=O)O)CC4)C[C@H]3COC)C2)CC1	Human MC1R (Homo sapiens, UniProt Q01726)	Human MC1R IA %	%	118
COC[C@H]1CN(C(=O)[C@]2(F)CN(c3ccc(C)nn3)C[C@H]2c2ccc(OC)cc2)C[C@@H]1c1ccc(C(F)(F)F)cc1N1CCC(C(=O)O)CC1	Human MC1R (Homo sapiens, UniProt Q01726)	Human MC1R IA %	%	92
COC[C@@H]1C[C@@H](c2ccc(C(F)(F)F)cc2N2CCC(C(=O)O)CC2)CN1C(=O)[C@]1(F)CN(c2ccnc(C)c2)C[C@H]1c1ccc(OC)cc1	Human MC1R (Homo sapiens, UniProt Q01726)	Human MC1R IA %	%	111
COC[C@H]1CN(C(=O)[C@]2(F)CN(C3CCCC3)C[C@H]2c2ccc(OC)cc2)C[C@@H]1c1ccc(OC(F)(F)F)cc1N1CCC(C(=O)O)CC1	Human MC1R (Homo sapiens, UniProt Q01726)	Human MC1R IA %	%	76

###

# TARGET: Human MC1R (Homo sapiens)
# Construct: endogenous in cells
# TEST_DETAILS: MCR agonist measurement (cAMP measurement), human MC1R agonist activity in human melanoma cell line HBL
# TEST_CONTEXT: HBL cells, 37° C. for 30 minutes, intracellular cAMP by fluorescence method
pEC50: −log10 of the molar value.
The entries below are paired with their reported pEC50.
READOUT_TYPE: pEC50

MOLECULE	READOUT_TYPE	VALUE_MEASURED
COC[C@@H]1C[C@@H](c2ccc(C(F)(F)F)cc2N2CCC(C(=O)O)CC2)CN1C(=O)[C@]1(F)CN(c2ccnc(C)n2)C[C@H]1c1ccc(OC)cc1	pEC50	8.70
COc1ccc([C@@H]2CN(C(C)(C)C)C[C@@]2(F)C(=O)N2C[C@H](c3ccc(C(F)(F)F)cc3N3CCC(C(=O)O)CC3)[C@@H](C#N)C2)cc1.Cl.Cl [Example 227, dihydrochloride]	pEC50	7.07
COc1ccc([C@@H]2CN(C3CCOC3)C[C@@]2(F)C(=O)N2CCC(c3ccc(C(F)(F)F)cc3N3CCC(C(=O)O)CC3)CC2)cc1 (stereo partly drawn) [Example 289]	pEC50	6.91

###

Some compounds, each annotated with its measured Human MC1R IA %.
# TARGET: Human MC1R (Homo sapiens)
# Construct: endogenous in cells; host or cells: human melanoma cell line HBL
# TEST_DETAILS: MCR agonist measurement (cAMP measurement), human MC1R agonist activity in human melanoma cell line HBL
# Assay type: cell-based
# TEST_CONTEXT: Intrinsic Activity; vehicle cAMP = 0%, αMSH at 10^-6 M = 100%; HBL cells
READOUT_TYPE: Human MC1R IA %

COMPOUND	READOUT_TYPE	VALUE_MEASURED
COC[C@H]1CN(C(=O)[C@]2(F)CN(C3CCCC3)C[C@H]2c2ccc(OC)cc2)C[C@@H]1c1ccc(C(F)(F)F)cc1N1CCC(C(=O)N(C)CC(=O)O)CC1 [Example 269]	Human MC1R IA %	73%
COc1ccc([C@@H]2CN(C(C)(C)C)C[C@@]2(F)C(=O)N2CCC(c3ccc(C(F)(F)F)cc3C(N)=O)CC2)cc1 [Example 267]	Human MC1R IA %	112%
COc1ccc([C@@H]2CN(C(C)(C)C)C[C@@]2(F)C(=O)N2CCC(c3ccc(C(F)(F)F)cc3N3CCC(C(=O)N(C)C)CC3)CC2)cc1 [Example 234]	Human MC1R IA %	105%
